Reference for the values: ChEMBL document CHEMBL3044730

- method: Cytotoxicity against Homo sapiens (human) HEL cells assessed as alteration in cell morphology by microscopy
- Type: cell-based
CC50 strictly less than 50 µg/mL = MET. Otherwise NOT MET.

{"compound": "O=C(N/N=C/c1cccc(Br)c1)c1cccnc1", "answerLabel": "NOT MET"}
{"compound": "O=C(N/N=C/c1cccc(O)c1)c1cccnc1", "answerLabel": "NOT MET"}
{"compound": "COc1ccc(/C=N/NC(=O)c2cccnc2)cc1", "answerLabel": "NOT MET"}
{"compound": "O=C(N/N=C/c1cccc(Cl)c1)c1cccnc1", "answerLabel": "NOT MET"}
{"compound": "O=C(N/N=C/c1ccccc1O)c1cccnc1", "answerLabel": "MET"}
{"compound": "O=C(N/N=C/c1ccc([N+](=O)[O-])cc1)c1cccnc1", "answerLabel": "MET"}
{"compound": "O=C(N/N=C/c1ccccc1)c1cccnc1 [NICOTINIC ACID BENZYLIDENE-HYDRAZIDE]", "answerLabel": "NOT MET"}
{"compound": "O=C(N/N=C/c1ccccc1Cl)c1cccnc1", "answerLabel": "MET"}
{"compound": "O=C(N/N=C/c1ccc(F)cc1)c1cccnc1", "answerLabel": "NOT MET"}
{"compound": "COc1ccc(OC)c(/C=N/NC(=O)c2cccnc2)c1", "answerLabel": "MET"}
{"compound": "O=C(N/N=C/c1ccccc1[N+](=O)[O-])c1cccnc1", "answerLabel": "MET"}
{"compound": "CCOc1cc(/C=N/NC(=O)c2cccnc2)ccc1O", "answerLabel": "NOT MET"}
{"compound": "O=C(N/N=C/c1ccc(O)cc1)c1cccnc1", "answerLabel": "NOT MET"}
{"compound": "O=C(N/N=C/c1ccc(Cl)cc1)c1cccnc1", "answerLabel": "MET"}
{"compound": "COc1cc(/C=N/NC(=O)c2cccnc2)ccc1O", "answerLabel": "NOT MET"}
{"compound": "O=C(N/N=C/c1ccc(Br)cc1)c1cccnc1", "answerLabel": "MET"}
{"compound": "O=C(N/N=C/c1cccc([N+](=O)[O-])c1)c1cccnc1", "answerLabel": "MET"}
{"compound": "O=C(N/N=C/c1ccccc1Br)c1cccnc1", "answerLabel": "MET"}
